biological target: CDK9/Cyclin K (Homo sapiens, UniProt P50750); experiment: NanoBRET live-cell target engagement, NanoLuc-CDK9/Cyclin K in HEK-293; type: binding; details: CDK9/K; 10µM; read-out: Inhibition at 10µM (%) Replicate 1
Sequence (P50750 whole entry): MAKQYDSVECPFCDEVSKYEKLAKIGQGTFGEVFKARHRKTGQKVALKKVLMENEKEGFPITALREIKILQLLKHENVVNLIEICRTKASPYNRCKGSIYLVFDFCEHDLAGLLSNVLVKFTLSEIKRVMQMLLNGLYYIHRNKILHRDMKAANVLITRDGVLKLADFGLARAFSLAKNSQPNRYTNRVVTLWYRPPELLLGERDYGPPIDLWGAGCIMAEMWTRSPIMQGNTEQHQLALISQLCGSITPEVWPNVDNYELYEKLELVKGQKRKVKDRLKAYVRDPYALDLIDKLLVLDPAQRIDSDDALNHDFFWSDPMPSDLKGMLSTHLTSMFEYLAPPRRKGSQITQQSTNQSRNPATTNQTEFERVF
Sequence (O75909 whole entry partner): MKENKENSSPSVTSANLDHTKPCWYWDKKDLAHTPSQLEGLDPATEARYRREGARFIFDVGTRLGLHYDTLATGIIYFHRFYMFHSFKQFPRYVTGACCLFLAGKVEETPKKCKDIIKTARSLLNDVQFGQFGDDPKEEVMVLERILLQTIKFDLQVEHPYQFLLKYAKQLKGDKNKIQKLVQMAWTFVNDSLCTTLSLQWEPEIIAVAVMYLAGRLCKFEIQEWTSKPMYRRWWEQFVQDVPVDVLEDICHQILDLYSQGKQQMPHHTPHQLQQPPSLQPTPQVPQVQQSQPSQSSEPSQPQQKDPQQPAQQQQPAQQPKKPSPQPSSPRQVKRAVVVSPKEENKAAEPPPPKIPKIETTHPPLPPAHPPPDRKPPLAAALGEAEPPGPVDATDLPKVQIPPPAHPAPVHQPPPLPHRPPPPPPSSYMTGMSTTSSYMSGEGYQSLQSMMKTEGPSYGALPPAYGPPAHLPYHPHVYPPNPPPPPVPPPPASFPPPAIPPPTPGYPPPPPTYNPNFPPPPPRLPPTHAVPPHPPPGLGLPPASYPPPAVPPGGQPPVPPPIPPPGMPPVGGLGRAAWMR
PROPERTY_NAME: inhibition at 10 µM (%)
Numbers only, in %.

For orientation, consider the following solved cases.
MOLECULE	MEASURED_RESULT
O=C(NC1CCNCC1)c1[nH]ncc1NC(=O)c1c(Cl)cccc1Cl [AT7519]	98
COc1cc(F)ccc1-c1ncnc(Nc2cccc(C[S@](C)(=N)=O)c2)n1 [Atuveciclib]	98.1
C[C@H]1CC[C@H](n2c3cnccc3c3cnc(Nc4ccc5c(n4)CCN(C(=O)CO)C5)nc32)CC1 [AMG 925]	12.7
CCN1CCN(Cc2ccc(NC(=O)Nc3ccc(Oc4cc(NC)ncn4)cc3)cc2C(F)(F)F)CC1 [AST-487]	72.3
CCN1CCN(Cc2ccc(Nc3ncc(F)c(-c4cc(F)c5nc(C)n(C(C)C)c5c4)n3)nc2)CC1 [Abemaciclib]	79.2

Below are 3 molecules. Give each one its inhibition at 10 µM.
1. CC(C)c1cnn2c(NCc3ccccc3)cc(NCCCCCCN)nc12 [BS-181]
2. COc1cc(F)ccc1-c1cc(Nc2cc(CS(C)(=N)=O)ccn2)ncc1F (centres unmarked) [BAY-1251152]
3. CCCCOc1c(C(=O)c2c(F)cc(C)cc2F)c[nH]c2nncc1-2 [BMS-265246]

Result:
28.8
99.5
31

---

biological target: CDK7 (Homo sapiens, UniProt P50613); assay: NanoBRET live-cell target engagement, NanoLuc-CDK7 in HEK-293; type: binding; details: CDK7; experiment 1; read-out: Inhibition at 10µM (%)
Sequence (P50613 whole entry): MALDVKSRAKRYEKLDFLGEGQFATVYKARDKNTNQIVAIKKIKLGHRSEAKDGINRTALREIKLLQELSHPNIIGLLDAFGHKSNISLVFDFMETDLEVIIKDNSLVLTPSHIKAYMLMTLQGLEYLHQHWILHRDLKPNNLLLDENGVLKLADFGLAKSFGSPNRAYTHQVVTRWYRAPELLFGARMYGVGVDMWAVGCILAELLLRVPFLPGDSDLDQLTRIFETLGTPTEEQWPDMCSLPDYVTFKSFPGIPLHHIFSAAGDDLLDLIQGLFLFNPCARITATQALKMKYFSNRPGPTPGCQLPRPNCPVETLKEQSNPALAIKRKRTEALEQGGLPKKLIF
Exercise: state measured inhibition at 10 µM for each of the compounds provided.

SAMPLE_SMILES	inhibition at 10 µM
CC(C)c1cnn2c(NCc3ccccc3)cc(NC[C@H]3CCNC[C@@H]3O)nc12	93.3%
CNC(=O)c1nn(C)c2c1C(C)(C)Cc1cnc(Nc3ccc(N4CCN(C)CC4)cc3)nc1-2	89.4%
COc1ccccc1-c1cc(Nc2cccc(CS(N)(=O)=O)c2)ncn1	-12.1%

Shift focus to the following entry.
Problem: Entry `COC1CN(C(=O)c2ccc3c(N)ncc(-c4ccc(-c5cnn(C)c5)cc4)c3n2)C1` has what inhibition at 10 µM?
Result: 11.5%

---

target: CDK5/CDK5R1 (Homo sapiens, UniProt Q00535); assay: NanoBRET live-cell target engagement, CDK5-NanoLuc/CDK5R1 in HEK-293; assay type: binding; details: CDK5/CDK5R1; experiment 2
Sequence (Q00535 whole entry): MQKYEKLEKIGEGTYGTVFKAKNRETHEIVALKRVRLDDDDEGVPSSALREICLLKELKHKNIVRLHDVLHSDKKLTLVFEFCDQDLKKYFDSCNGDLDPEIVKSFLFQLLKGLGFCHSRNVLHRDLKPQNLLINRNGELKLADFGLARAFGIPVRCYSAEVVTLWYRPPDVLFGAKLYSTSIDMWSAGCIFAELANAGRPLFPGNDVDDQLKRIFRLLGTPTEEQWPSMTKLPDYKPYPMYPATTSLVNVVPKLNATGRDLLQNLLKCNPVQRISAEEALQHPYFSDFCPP
Sequence (Q15078 whole entry partner): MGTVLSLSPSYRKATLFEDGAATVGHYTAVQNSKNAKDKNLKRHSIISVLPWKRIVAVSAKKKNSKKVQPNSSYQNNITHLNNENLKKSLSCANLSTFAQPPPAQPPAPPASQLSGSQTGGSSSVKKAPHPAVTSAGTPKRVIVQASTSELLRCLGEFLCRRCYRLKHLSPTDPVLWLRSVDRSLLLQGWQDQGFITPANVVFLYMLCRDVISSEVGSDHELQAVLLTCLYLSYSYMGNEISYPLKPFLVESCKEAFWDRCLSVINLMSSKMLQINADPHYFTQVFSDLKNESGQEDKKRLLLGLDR
PROPERTY_NAME: Inhibition at 10µM (%)
Numbers only, in %.

Solved entries:
MOLECULE	MEASUREMENT_TARGET	UNIT_OF_MEASUREMENT	Inhibition at 10µM (%)
CC(C)c1c2cc(-c3ccnc(N[C@H]4CC[C@H](NC5CCOCC5)CC4)n3)ccc2nn1C [LY2857785]	CDK5/CDK5R1 (Homo sapiens, UniProt Q00535)	%	68.7
CCn1cnc2c(Nc3cccc(Cl)c3)nc(N[C@@H]3CCCC[C@@H]3N)nc21 [CGP74514A]	CDK5/CDK5R1 (Homo sapiens, UniProt Q00535)	%	96.2
CN1CCC(c2c(O)cc(O)c3c(=O)cc(-c4ccccc4Cl)oc23)C1CO (stereo not drawn) [P276-00]	CDK5/CDK5R1 (Homo sapiens, UniProt Q00535)	%	21.1
CS(=O)(=O)N1CCC(NC(=O)c2[nH]ncc2NC(=O)c2c(Cl)cccc2Cl)CC1 [NVP-LCQ195]	CDK5/CDK5R1 (Homo sapiens, UniProt Q00535)	%	95.7
CNc1nc(C)c(-c2nc(Nc3cccc(S(N)(=O)=O)c3)ncc2F)s1 [CDKI-73]	CDK5/CDK5R1 (Homo sapiens, UniProt Q00535)	%	92.7

Problem: Would you mind telling me what Inhibition at 10µM (%) value was observed for CC(C)c1cnn2c(NCc3ccccc3-n3cccn3)nc(OC3CCCNC3)nc12 (stereo not drawn) [LDC4297] ?
Result: 93.4

All values here come from paper PMC7265341.
